Please respond with reported protein stability index for every item in the list.
B1: RIPK4 (parent)
chain: VIDLFDEQGLSALHLAAQGRHAQT

- Variants of: B1
- method: protein stability index of a GFP-peptide fusion (GPS, HEK-293T) (PSI 1-6); higher = more stable;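 also: lentivirally expressed fusions sorted by FACS into six bins by GFP to DsRed ratio, PSI derived from sequencing read proportions per bin multiplied by bin number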
- condition.notes: c terminus: a fixed tail appended
Answer with a number only.

Read off the recorded protein stability index for VIDLFDEQGLSALHLAAQGGHAQT [R20G]
2.94

Read off the recorded protein stability index for VIHLFDEQGLSALHLAAQGRHAQT [D3H]
1.68

Read off the recorded protein stability index for VIDLLDEQGLSALHLAAQGRHAQT [F5L]
2.95

Read off the recorded protein stability index for MIDLFDEQGLSALHLAAQGRHAQT [V1M]
3.37

Read off the recorded protein stability index for VIDLFDEQGASALHLAAQGRHAQT [L10A]
3.33

Read off the recorded protein stability index for VIDLFDEQGNSALHLAAQGRHAQT [L10N]
3.83

Read off the recorded protein stability index for VIDLFDEQGLSALHLAAQARHAQT [G19A]
2.57

Read off the recorded protein stability index for VIDLFDEYGLSALHLAAQGRHAQT [Q8Y]
2.25

Read off the recorded protein stability index for VTDLFDEQGLSALHLAAQGRHAQT [I2T]
3.64

Read off the recorded protein stability index for VADLFDEQGLSALHLAAQGRHAQT [I2A]
3.92

Read off the recorded protein stability index for VIDLFDEQGLSADHLAAQGRHAQT [L13D]
4.04

Read off the recorded protein stability index for FIDLFDEQGLSALHLAAQGRHAQT [V1F]
1.88

Read off the recorded protein stability index for VIDLFDSQGLSALHLAAQGRHAQT [E7S]
2.73

Read off the recorded protein stability index for VIDLGDEQGLSALHLAAQGRHAQT [F5G]
3.86

Read off the recorded protein stability index for VIDLFDPQGLSALHLAAQGRHAQT [E7P]
2

Read off the recorded protein stability index for VIDRFDEQGLSALHLAAQGRHAQT [L4R]
3.34

Read off the recorded protein stability index for CIDLFDEQGLSALHLAAQGRHAQT [V1C]
2.88

Read off the recorded protein stability index for VIDLFDEQGLSVLHLAAQGRHAQT [A12V]
1.99

Read off the recorded protein stability index for VIDLFDEQGLSALHLFAQGRHAQT [A16F]
1.99

Read off the recorded protein stability index for VLDLFDEQGLSALHLAAQGRHAQT [I2L]
2.25

Read off the recorded protein stability index for VIDLFDEQGLSALHLASQGRHAQT [A17S]
2.83

Read off the recorded protein stability index for VIDLFDEQGLSALHLAAQGRHAST [Q23S]
2.6

Read off the recorded protein stability index for VIDLFDEQGLSALHLAAQGRHAAT [Q23A]
2.67

Read off the recorded protein stability index for VIDLFDEQGLSALHLAAQGRHRQT [A22R]
3.13

Read off the recorded protein stability index for VIDLFDEQGLSFLHLAAQGRHAQT [A12F]
2.05

Read off the recorded protein stability index for VIDLFDEQGLSALHLAAQGRHAQQ [T24Q]
2.51

Read off the recorded protein stability index for VIDLFDEQGLSALHLAAQGEHAQT [R20E]
3.7

Read off the recorded protein stability index for VIDLFDEQGLSAHHLAAQGRHAQT [L13H]
3.48

Read off the recorded protein stability index for VIDLFDEQYLSALHLAAQGRHAQT [G9Y]
1.6

Read off the recorded protein stability index for VIDLFDEQGLSALHLAEQGRHAQT [A17E]
3.54

Read off the recorded protein stability index for QIDLFDEQGLSALHLAAQGRHAQT [V1Q]
4.09

Read off the recorded protein stability index for VIDLFDEQGLSALALAAQGRHAQT [H14A]
2.49

Read off the recorded protein stability index for VIDLFDEQGLPALHLAAQGRHAQT [S11P]
2.95

Read off the recorded protein stability index for VIDLFDEQGLSARHLAAQGRHAQT [L13R]
3.31

Read off the recorded protein stability index for VIDLFDEQGLSALHLAAGGRHAQT [Q18G]
2.9

Read off the recorded protein stability index for VIDLFDEQGLSALHLAAQGRHKQT [A22K]
3.17

Read off the recorded protein stability index for VIDLFDEQGLSALHLAAQGRHATT [Q23T]
2.72

Read off the recorded protein stability index for VIDLFDEQGLSALFLAAQGRHAQT [H14F]
1.82

Read off the recorded protein stability index for VIDLFDEQGLSRLHLAAQGRHAQT [A12R]
3.12

Read off the recorded protein stability index for VIDLFDEQGLSALHLAAQGRHAPT [Q23P]
2.66

Read off the recorded protein stability index for VIDLFDEQGLSDLHLAAQGRHAQT [A12D]
3.21

Read off the recorded protein stability index for VIDLFDEQGLSALHLAAQGRQAQT [H21Q]
3.23

Read off the recorded protein stability index for VIDLFDEQGLSALHLALQGRHAQT [A17L]
1.98

Read off the recorded protein stability index for VIDLFDEQGLSALHAAAQGRHAQT [L15A]
3.31

Read off the recorded protein stability index for VIDLFDEQGLSPLHLAAQGRHAQT [A12P]
3.25

Read off the recorded protein stability index for VIDLFDEQGLSALHLAAQGCHAQT [R20C]
2.6
